Hey, just so you know, these numbers are from patent US20020177126A1.

Substrate: F protein of wild type RSV A/Long (respiratory syncytial virus, strain A/Long) (UniProt P12568)
Sequence (P12568 26-574): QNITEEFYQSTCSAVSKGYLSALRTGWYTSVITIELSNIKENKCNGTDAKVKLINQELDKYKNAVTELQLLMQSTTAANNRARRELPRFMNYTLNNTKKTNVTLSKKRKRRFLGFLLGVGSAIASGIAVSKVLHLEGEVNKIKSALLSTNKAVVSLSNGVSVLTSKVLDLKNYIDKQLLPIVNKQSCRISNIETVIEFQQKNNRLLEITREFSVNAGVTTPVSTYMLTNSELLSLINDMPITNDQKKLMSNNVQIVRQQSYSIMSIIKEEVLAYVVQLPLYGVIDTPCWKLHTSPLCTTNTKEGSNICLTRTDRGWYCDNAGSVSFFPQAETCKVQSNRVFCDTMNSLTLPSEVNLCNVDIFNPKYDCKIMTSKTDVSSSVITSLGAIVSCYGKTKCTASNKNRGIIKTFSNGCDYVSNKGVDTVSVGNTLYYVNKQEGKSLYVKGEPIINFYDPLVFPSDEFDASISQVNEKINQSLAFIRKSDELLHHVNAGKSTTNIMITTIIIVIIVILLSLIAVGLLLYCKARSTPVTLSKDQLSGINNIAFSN
Assay: cell-based or functional assay
Assay metric: Mean IC50 (Control), RSV microneutralization (µg/mL)

Binder	Result value
A1h5 (Fab) (Fab, V domains shown) VH: QVTLRESGPALVKPTQTLTLTCTFSGFSLSTPGMSVGWIRQPPGKALEWLADIWWDGKKHYNPSLKDRLTISKDTSKNQVVLKVTNMDPADTATYYCARDMIFNWYFDVWGQGTTVTVSS VL: DIQMTQSPSTLSASVGDRVTITCSLSSSVGYMHWYQQKPGKAPKLLIYDTFFHRSGVPSRFSGSGSGTEFTLTISSLQPDDFATYYCFQGSGYPFTFGGGTKLEIK	0.176
A8c7 (Fab) (Fab, V domains shown) VH: QVTLRESGPALVKPTQTLTLTCTFSGFSLSTAGMSVGWIRQPPGKALEWLADIWWDDKKSYNPSLKDRLTISKDTSKNQVVLKVTNMDPADTATYYCARDMIFNWYFDVWGQGTTVTVSS VL: DIQMTQSPSTLSASVGDRVTITCSASSRVGYMHWYQQKPGKAPKLLIYDTRYQSSGVPSRFSGSGSGTEFTLTISSLQPDDFATYYCFQGSGYPFTFGGGTKLEIK	0.157
A17d4 (Fab) (Fab, V domains shown) VH: QVTLRESGPALVKPTQTLTLTCTFSGFSLSTAGMSVGWIRQPPGKALEWLADIWWDGKKSYNPSLKDRLTISKDTSKNQVVLKVTNMDPADTATYYCARDMIFNFYFDVWGQGTTVTVSS VL: DIQMTQSPSTLSASVGDRVTITCLPSSRVGYMHWYQQKPGKAPKLLIYDTMYQASGVPSRFSGSGSGTEFTLTISSLQPDDFATYYCFQFSGYPFTFGGGTKLEIK	0.0171
A4B4 (Fab) (Fab, V domains shown) VH: QVTLRESGPALVKPTQTLTLTCTFSGFSLSTAGMSVGWIRQPPGKALEWLADIWWDDKKHYNPSLKDRLTISKDTSKNQVVLKVTNMDPADTATYYCARDMIFNFYFDVWGQGTTVTVSS VL: DIQMTQSPSTLSASVGDRVTITCSASSRVGYMHWYQQKPGKAPKLLIYDTFFLDSGVPSRFSGSGSGTEFTLTISSLQPDDFATYYCFQGSGYPFTFGGGTKLEIK	0.0411
